These measurements were taken from PubChem BioAssay (NCI).

method_description: NCI Yeast Anticancer Drug Screen. Data for the rad50 strain (AID 155)
experimental_setup: S. cerevisiae rad50 strain growth inhibition; at 50.0 µM
The panel holds about 79,000 compounds, 15% with a hit somewhere; the sample as a whole holds those more often. The source made the active and inactive calls. Rule as the data show it: active = growth inhibition above about 70%; inactive = the rest.
Output constraint: value belongs to Y for active, N for inactive

In: Any idea what this test logged for ClC1c2ccccc2Cc2cccnc21 (stereo unspecified) ?
Out: Y

In: Call for entry c1ccc(C2CC(c3ccc4ccccc4c3)=Nc3ccccc3S2)cc1 (stereo unspecified) :
Out: Y

In: # lookup: test call for COc1ccc(/C(Cl)=C(\C=O)c2ccc(Cl)cc2)cc1OC
Out: N

In: Any idea what this test logged for CN1CCN(CCn2c3c4ccccc4ccc3c3oc(=O)c4ccccc4c32)CC1 ?
Out: N

In: Hello, I am checking results. What call was entered for Cc1cccc(C)c1N=Nc1c(C)nc(N)nc1-c1ccccc1 ?
Out: Y

In: What was the test verdict on CCOc1cc2c(cc1O)CC[C@@H]1[C@@H]2CC[C@]2(C)[C@@H](O)CC[C@@H]12 ?
Out: N

In: Hey, what did the test say about C[C@@H]1CN(CC2COc3ccccc3O2)[C@@H](C)CN1CC1COc2ccccc2O1 (stereo partly specified) ?
Out: Y

In: Please indicate how the test categorized Cn1cnc([N+](=O)[O-])c1Sc1nc2ccccc2s1 .
Out: Y

In: What was the test verdict on Cc1ccc(NC(=O)CSC(N)=O)cc1C ?
Out: Y

In: I'd appreciate the recorded outcome for Clc1ccc(/C(=C/c2ccccc2)Cn2ccnc2)cc1 from this test.
Out: Y

In: What did this assay record as the result for Cn1c(=S)c2[nH]c(SCCN3CCCCC3)nc2n(C)c1=O ?
Out: Y
